Each recorded value in this set is attributed to paper PMC12005767.

Target: HDAC11 (Homo sapiens, UniProt Q96DB2)
Construct: The HDAC11 enzyme was a full‐length human recombinant HDAC enzyme sourced from BPS Bioscience; purchased BPS Bioscience
Sequence (Q96DB2 whole entry): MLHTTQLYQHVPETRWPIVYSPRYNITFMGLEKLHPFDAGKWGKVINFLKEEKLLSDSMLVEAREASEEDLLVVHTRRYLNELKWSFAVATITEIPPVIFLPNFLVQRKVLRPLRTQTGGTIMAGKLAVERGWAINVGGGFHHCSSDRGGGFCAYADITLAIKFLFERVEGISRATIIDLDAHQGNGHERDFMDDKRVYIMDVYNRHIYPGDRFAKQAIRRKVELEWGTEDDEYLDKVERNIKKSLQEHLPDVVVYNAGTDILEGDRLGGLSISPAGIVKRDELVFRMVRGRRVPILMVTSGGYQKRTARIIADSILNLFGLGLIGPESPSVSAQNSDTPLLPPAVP
Assay: HDAC11 inhibition fluorescence assay (ETDKmyr substrate)
Type: biochemical
Conditions: mean ± SEM
pIC50: −log10 of the molar value.
Reported pIC50 values for the following compounds.

{"SMILES_INPUT": "CCCCNNC(=O)c1ccc(CNC(=O)c2ccccc2)cc1", "pIC50": 5.49}
{"SMILES_INPUT": "CCCCCNNC(=O)c1ccc(CNC(=O)c2ccccc2)cc1", "pIC50": 5.17}
{"SMILES_INPUT": "CCOCCOCCCCCNNC(=O)c1ccc(CNC(=O)c2ccccc2)cc1", "pIC50": 6.10}
{"SMILES_INPUT": "CCCCCCCNNC(=O)c1ccc(CNC(=O)c2ccccc2)cc1", "pIC50": 5.48}
{"SMILES_INPUT": "O=C(NCc1ccc(C(=O)NNCCCCCCCCCCO)cc1)c1ccccc1", "pIC50": 6.18}
{"SMILES_INPUT": "CCCCCCCCCCCCNNC(=O)c1ccc(CNC(=O)c2ccccc2)cc1", "pIC50": 6.88}

----------
Target: HDAC11 (Homo sapiens, UniProt Q96DB2)
Construct: The HDAC11 enzyme was a full‐length human recombinant HDAC enzyme sourced from BPS Bioscience; purchased BPS Bioscience
Assay: HDAC11 inhibition fluorescence assay (ETDKmyr substrate)
Format: biochemical
Protocol: The HDAC11 enzyme was a full‐length human recombinant HDAC enzyme sourced from BPS Bioscience. […] After a standing period of 6 h, the fluorescence intensity was assessed using a microplate reader at excitation and emission wavelengths of 360 and 460 nm, respectively. The inhibition ratios were calculated based on the fluorescence intensity readings of the test wells compared to the control wells. […]
ENDPOINT_LABEL: IC50 (µM)

{"COMPOUND": "CCCCCOCCCCCNNC(=O)c1ccc(CNC(=O)c2ccccc2)cc1 [B6]", "NUMERIC_RESULT": 0.0511}

----------
Target: HDAC11 (Homo sapiens, UniProt Q96DB2)
Construct: The HDAC11 enzyme was a full‐length human recombinant HDAC enzyme sourced from BPS Bioscience; purchased BPS Bioscience
Experiment: HDAC11 inhibition fluorescence assay (ETDKmyr substrate)
Assay type: biochemical
Conditions: mean ± SEM
Lab note: anything with IC50 below 500 nM is marked True; values at 500 nM or higher are marked False.

{"SMILES_INPUT": "CCCCCCCCCCNNC(=O)c1ccc(CNC(=O)c2ccccc2)cc1", "CLASS_ASSIGNMENT": "True"}
{"SMILES_INPUT": "CCCCCCCCNNC(=O)c1ccc(CNC(=O)c2ccccc2)cc1", "CLASS_ASSIGNMENT": "False"}
{"SMILES_INPUT": "COCCCCCCCCCNNC(=O)c1ccc(CNC(=O)c2ccccc2)cc1", "CLASS_ASSIGNMENT": "False"}

----------
Target: HDAC3 (Homo sapiens)
Sequence (O15379 whole entry): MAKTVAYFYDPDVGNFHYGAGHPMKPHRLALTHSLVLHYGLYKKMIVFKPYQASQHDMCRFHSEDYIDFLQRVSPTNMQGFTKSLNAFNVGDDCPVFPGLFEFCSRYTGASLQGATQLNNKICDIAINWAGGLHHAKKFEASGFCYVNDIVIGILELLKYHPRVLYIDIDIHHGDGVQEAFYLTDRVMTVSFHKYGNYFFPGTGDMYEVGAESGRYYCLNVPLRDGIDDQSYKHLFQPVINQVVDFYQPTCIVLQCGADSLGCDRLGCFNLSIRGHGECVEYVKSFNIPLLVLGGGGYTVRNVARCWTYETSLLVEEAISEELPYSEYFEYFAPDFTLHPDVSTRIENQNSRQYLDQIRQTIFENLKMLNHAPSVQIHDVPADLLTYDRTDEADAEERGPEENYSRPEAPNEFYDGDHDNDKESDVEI
Sequence (Q9Y618 395-489 partner limits assumed): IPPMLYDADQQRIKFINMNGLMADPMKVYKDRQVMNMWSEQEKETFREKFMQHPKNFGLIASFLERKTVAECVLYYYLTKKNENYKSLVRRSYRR

{"MOLECULE": "CCCCCCCCCCCCCCCCNNC(=O)c1cccs1 [SIS17, reference compound]", "IC50": "> 10 µM"}
{"MOLECULE": "CCCCCOCCCCCNNC(=O)c1ccc(CNC(=O)c2ccccc2)cc1", "IC50": "> 10 µM"}
{"MOLECULE": "CCCCCCCCCCNNC(=O)c1ccc(CNC(=O)c2ccccc2)cc1", "IC50": "> 10 µM"}
